Assay: Plasma stability (UPLC-MS/MS recovery)
Format: in vitro ADME
Settings: 37 °C, rat plasma diluted 1:1 with PBS pH 7.4, read-out: Compound recovery after incubation with rat plasma
From the text: To investigate the potential plasma instability of the carbamoyl-N-arylimine-urea subunit, designed as a new peptide mimetic framework, compound 10e (LASSBio-1736) was selected to investigate its plasma stability,[21,22] previously to the evaluation of its in vivo leishmanicidal effect. […]
quantity-name: recovery at 4 h, 250 ng/mL

> print(dat)
                                   compound  reading
1  CCOC(=O)c1ccc(N)cc1 [benzocaine, reference compound]      38%

---

Known pIC50 of a selection of compounds
system: J774.A1 cell lines (macrophages); assay: Cytotoxicity against J774.A1 macrophages, MTT assay; type: cell-based, murine (BALB/c); details: Mus musculus, J774.A1, 48 h, read-out: IC50 (concentration required to give 50% death of cells)
pIC50: −log10 of the molar value.
quantity-name: pIC50

> print(dat)
                                   compound  reading
1  O=C(N/N=C/c1ccc(C(F)(F)F)cc1)NNC(=O)c1ccc(Cl)cc1Cl [LASSBio-1736 (10e)]   < 4.00
2  CCCCCCCCCCCCCCCCOP(=O)([O-])OCC[N+](C)(C)C [Miltefosine, reference compound]   < 4.00
